The reported numbers originate from the supplement of paper PMC10338343.

tested on: MILI (PIWIL2) piRISC loaded with L1MC piRNA (26 nt); test: pre-steady-state target cleavage rate (min^-1); guide: L1MC piRNA 5'p-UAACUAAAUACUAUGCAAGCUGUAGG; MIWI and MILI are mouse PIWI proteins and EfPiwi is from a freshwater sponge; tags in brackets are library labels; higher = faster piRNA-guided slicing of the target; details: auxiliary factor: 500 nM mouse GTSF1;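 further: 1 nM active piRISC with 0.1 nM target library at 33 °C single turnover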
# label = Y if pre-steady-state target cleavage rate >= 0.1 else N

| Entry sequence | Label value |
| --- | --- |
| UCCUGGAUGAGCUUGCAUACUAUUUAGUUA | N |
| UCCUGGAUGUGCUUGCAUAGUAUUUAAUUA | N |
| UCCUCCUACAGCUUGGAUAGUAAUUAGUUA | Y |
| UCCUGGAUGAGCUUGCAUAGCAUUUAGUUA | N |
| UCCUGGUACAGCUUGCAUAGUAUUUAGUUC [g2:g24:cont:t1C] | Y |

Is reported pre-steady-state target cleavage rate greater than or equal to 0.1 here: UCCUGGAUGUCGUUGCAUAGUACUUAGUUA
N

Dear colleague, could you confirm whether UCCUCCUACACCUUGGAUAGUAUUUAGUUA has pre-steady-state target cleavage rate at or above 0.1?
Y

Given UCCUGGUACCGCUUGCAUAGUAUUUAGUUA , state whether its pre-steady-state target cleavage rate is at least 0.1.
Y

Reported pre-steady-state target cleavage rate reaches at least 0.1 for UCCUGGAACAGCUUGCAUAGUAUAAAGUAA ?
Y

Is the recorded value of pre-steady-state target cleavage rate equal to or greater than 0.1 for this sequence? UCCUGGAACAGCUUGCAUAGUAUAUAGAAA
N

hey, is pre-steady-state target cleavage rate for this one >= 0.1? UCCUGGAUCUGCUUGCAUAGUAUUUAGAUA
N

Test whether the sequence UCCUGGAUGUCGAUACAUAGUAUUUAGUUA records pre-steady-state target cleavage rate of 0.1 or higher.
N
